Please provide measured half-life for the entries that follow.
assay: Rat pharmacokinetics; assay type: in vivo; conditions: male, Sprague-Dawley, plasma, PO, 30 mg/kg free base, read-out: t1/2 (converted)
Give bare numbers, in h.

Parameter requested: half-life. Apply to each item below.
1. O[C@@H]1[C@@H](Cc2ccccc2)CNC[C@H]1O
2. Cl.O[C@H]1[C@H](O)CNC[C@@H]1C(F)F

Found:
3.8
2.75

---

assay: Rat pharmacokinetics; type: in vivo; conditions: male, Sprague-Dawley, plasma, IV, 3 mg/kg free base
quantity_name: Vd (L/kg)
Numbers only, in L/kg.

- mol: "O[C@@H]1[C@@H](Cc2ccccc2)CNC[C@H]1O"
  measurement: 12.6

Lookup: Please look up its Vd: Cl.O[C@H]1[C@H](O)CNC[C@@H]1C(F)F
Found: 2.61
